Exercise: state measured Inf. C: Trichophyton rubrum B68183, pIC50 for each of the compounds provided.
System: Trichophyton rubrum
PROCEDURE_TEXT: Antifungal activity in vitro, resazurin growth inhibition: Trichophyton rubrum (B68183)
Assay type: cell-based
Numbers only.

>>> print(df.to_string())
                                   compound  test_value
0  COc1cccc2cc(C3=NCc4ccc(Cl)cc4-n4cccc43)oc12 [Compound 142]        5.64
1  Clc1ccc2c(c1)-n1cccc1C(c1cnc3ccccc3c1)=NC2 [Compound 206]        6.00

# batch size: 3; output Inf. C: Trichophyton rubrum B68183, pIC50 per entry
1. Fc1cc(Cl)c2c(c1)-n1cccc1C(c1ccc(Cl)nc1)=NC2 [Compound 78]
2. Cl.FC(F)(F)c1ccc(C2NCc3c(Cl)cc(Cl)cc3-n3cccc32)cn1 (racemic) [Compound 19]
3. Br.Clc1ccc2c(c1)CNC(c1ccncc1)c1cccn1-2 (racemic) [Compound 22]

A.
1: 6.18; 2: 5.65; 3: 5.10

# batch size: 2; output Inf. C: Trichophyton rubrum B68183, pIC50 per entry
1. Clc1ccc2c(c1)-n1cccc1C(c1ccc3nc[nH]c3c1)=NC2 [Compound 204]
2. Fc1cccc2c1CN=C(c1ccc(C(F)(F)F)nc1)c1cccn1-2 [Compound 90]

A.
4.67
6.19

---

Exercise: state measured Inf. C: Trichophyton rubrum B68183, pIC50 for each of the compounds provided.
System: Trichophyton rubrum
PROCEDURE_TEXT: Antifungal activity in vitro, resazurin growth inhibition: Trichophyton rubrum (B68183)
Format: cell-based
Give bare numbers.

>>> print(df.to_string())
                                test_smiles          test_system  test_value
0  CCc1ccc(C2=NCc3c(Cl)cc(Cl)cc3-n3cccc32)nc1  Trichophyton rubrum        6.09
1  Fc1cc(F)c2c(c1)-n1cccc1C(c1ccc3scnc3c1)=NC2  Trichophyton rubrum        6.14
2  Cc1ccc2cc(C3=NCc4c(Cl)cccc4-n4cccc43)oc2c1  Trichophyton rubrum        6.83
3  CCn1cc(C2=NCc3c(Cl)ccc(Cl)c3-n3cccc32)cn1  Trichophyton rubrum        4.52
4  COc1ccc2oc(C3=NCc4c(Cl)cc(Cl)cc4-n4cccc43)cc2c1  Trichophyton rubrum        5.04

Q. // query Inf. C: Trichophyton rubrum B68183, pIC50 value for entry "Clc1cc2cc(C3=NCc4c(Cl)cccc4-n4cccc43)ccc2o1"
A. 7.15

---

Test system: Trichophyton rubrum
PROCEDURE_TEXT: Antifungal activity in vitro, resazurin growth inhibition: Trichophyton rubrum (B68183)
Assay type: cell-based
Please note: true applies when Inf. C: Trichophyton rubrum B68183, pIC50 is 6 or greater, and false applies otherwise.

Consider the worked cases shown below.
>>> print(df.to_string())
                                   compound  discrete_label
0  FC(F)(F)c1nc2cc(C3=NCc4c(Cl)cccc4-n4cccc43)ccc2s1           false
1    Cc1ccc2cc(C3=NCc4ccccc4-n4cccc43)oc2c1            true
2     CCn1cc(C2=NCc3c(Cl)cccc3-n3cccc32)cn1           false
3  Cc1cccc2c1-n1cccc1C(c1cc3ccccc3o1)NC2.Cl (racemic)           false
4  Cc1ccc2cc(C3=NCc4c(C)cccc4-n4cccc43)oc2c1            true
5  COc1cccc2cc(C3=NCc4c(C)cccc4-n4cccc43)oc12            true

Q. Say whether Fc1ccc2oc(C3NCc4c(Cl)cccc4-n4cccc43)cc2c1 (racemic) shows Inf. C: Trichophyton rubrum B68183, pIC50 of 6 or more.
A. true
